# ASSAY_METHOD_TEXT: qHTS for Inhibitors of human tyrosyl-DNA phosphodiesterase 1 (TDP1): qHTS in cells in presence of CPT; further: nearly all actives have a fitted effect of over 55% in size
# DETAILS: chicken DT40 Tdp1-/-;hTDP1 cells + 20 nM CPT, ATP luminescence, 48 h; series mostly up to 46.2 µM
Screen size: about 420,000 compounds; about 50,000 (12%) were called active. About 26% were inconclusive and are not listed. The call rests on the fitted dose curve; in most records, active means well fitted inhibition curve with a large enough effect; inconclusive means small, poorly fitted or top-dose-only effect; inactive means flat fitted curve, though single readings scatter. The sample holds actives, similar compounds and a random draw of the others, so the mix is not that of the screen.
Respond only with the outcome that fits, drawn from True = active, False = inactive

Query: What did this assay record as the result for COc1ccc(N2C(=O)c3ccccc3NC2c2ccc(OC)c(CN3CCOCC3)c2)cc1 (centres undefined) ?
Response: False

Query: What did this assay record as the result for Cc1ccc(NC(=O)C(Cc2ccccc2)NS(=O)(=O)c2ccc3c(c2)oc(=O)n3C)cc1C (centres undefined) ?
Response: False

Query: What did this assay record as the result for COc1ccc(CCNC(=O)CCc2ccccc2O)cc1OC ?
Response: False

Query: What did this assay record as the result for CN(C)c1ccc(/C=C/c2sc3ccccc3[n+]2CCCCBr)cc1 ?
Response: True

Query: What did this assay record as the result for COc1ccc2ccn(C)c2c1 ?
Response: False

Query: What did this assay record as the result for COc1cccc(CN2CCN(Cc3ccc4cccc(F)c4n3)CC2CCO)c1 (centres undefined) ?
Response: False

Query: What did this assay record as the result for COc1ccccc1CNC(=O)C(Cc1ccccc1)NS(=O)(=O)c1ccc2c(c1)oc(=O)n2C (centres undefined) ?
Response: True

Query: What did this assay record as the result for O=C(NNc1cc(Cl)cc(Cl)c1)c1c(F)cccc1Cl ?
Response: False

Query: What did this assay record as the result for Cc1ccccc1CNC(=O)C1CCCN(S(=O)(=O)N(C)c2ccc(F)cc2)C1 (centres undefined) ?
Response: True

Query: What did this assay record as the result for O=C(Nc1cccc2ccccc12)c1onc2c1CCCC2 ?
Response: True

Query: What did this assay record as the result for COc1cccc(NC(=O)CN(C)C(=O)c2cc(C3CC3)nn2-c2ccccc2)c1 ?
Response: False

Query: What did this assay record as the result for Nc1ccc(S(=O)(=O)NC(=O)c2ccccc2)cc1 ?
Response: False

Query: What did this assay record as the result for CCCS(=O)(=O)Nc1ccc(-c2cn3c(n2)SCC3)cc1 ?
Response: False

Query: What did this assay record as the result for CN(C)c1ccc(/C=C/c2sc3ccccc3[n+]2C)cc1 ?
Response: True

Query: What did this assay record as the result for COc1ccccc1OCCCn1c(-c2ccc(Cl)cc2)nc2ccccc2c1=O ?
Response: False

Query: What did this assay record as the result for CCC(=O)Nc1ccc2nn(-c3ccc(F)cc3)nc2c1 ?
Response: False

Query: What did this assay record as the result for COc1ccc(C(=O)Nc2ccc(-n3nncc3-c3ccccc3)cc2)cc1OC ?
Response: True

Query: What did this assay record as the result for CC1=C(C(N)=O)C(c2ccc(F)cc2)n2nc(CCCO)nc2N1 (centres undefined) ?
Response: False

Query: What did this assay record as the result for CCOC(=O)c1c(S(=O)(=O)N2CCCC(C(=O)NCc3ccc(F)cc3)C2)c(C)n(CC)c1C (centres undefined) ?
Response: False

Query: What did this assay record as the result for COc1ccccc1NC(=O)c1c(Br)cnn1C ?
Response: False

Query: What did this assay record as the result for Cc1c(C(=O)NC(C)C2CC3CCC2C3)cccc1[N+](=O)[O-] (centres undefined) ?
Response: False

Query: What did this assay record as the result for Cc1ccc(-n2nc3ccc(NC(=O)/C=C/c4ccco4)cc3n2)cc1C ?
Response: True

Query: What did this assay record as the result for COC(=O)Cn1cc(C(=O)c2cccs2)c2ccccc21 ?
Response: False

Query: What did this assay record as the result for O=[N+]([O-])c1ccc(CN2CC(N3CCC(c4ccccc4)CC3)CS2(=O)=O)cc1 (centres undefined) ?
Response: True

Query: What did this assay record as the result for Cc1ccc(NC(=O)CCN2C(=O)c3ccccc3C2=O)cc1C ?
Response: False

Query: What did this assay record as the result for CNc1cncc(-c2ccc(NS(C)(=O)=O)cc2)n1 ?
Response: True

Query: What did this assay record as the result for CCN(CC(=O)NCc1cccs1)C(=O)/C=C/c1ccc(C)cc1 ?
Response: False

Query: What did this assay record as the result for CC(C)(O)C1=C[N+](=O)CC=C1 ?
Response: False

Query: What did this assay record as the result for O=C(O)C(c1ccccc1)N1C(=O)/C(=C\c2ccc(-c3cccc(Cl)c3)o2)SC1=S (centres undefined) ?
Response: False

Query: What did this assay record as the result for O=C(CSc1n[nH]c(-c2cccnc2)n1)Nc1ccc(Cl)cc1 ?
Response: False

Query: What did this assay record as the result for CCCc1c(-c2ccccc2F)ncn1Cc1ccccc1OC ?
Response: True

Query: What did this assay record as the result for COc1cccc(OC)c1C(=O)N1CCN(Cc2ccccc2F)CC1 ?
Response: False

Query: What did this assay record as the result for COc1cccc(COC(=O)C2CCN(S(=O)(=O)c3cccs3)CC2)c1OC ?
Response: False

Query: What did this assay record as the result for CN(C(=N)N)c1ccc(/C=C2\C=Cc3ccccc32)cc1 ?
Response: True

Query: What did this assay record as the result for COC(=O)c1cn(CC(=O)NCc2cccs2)c2ccccc12 ?
Response: False

Query: What did this assay record as the result for O=C(O)CC/C(=C\c1cc2c(cc1Br)OCO2)c1nc2ccccc2s1 ?
Response: False

Query: What did this assay record as the result for CCn1cc(C(=O)NCC(=O)NC(C)(C)CO)c(=O)c2cc3c(cc21)OCO3 ?
Response: False

Query: What did this assay record as the result for O=S1(=O)CC(N2CCN(c3ccccn3)CC2)CN1Cc1ccc(F)cc1 (centres undefined) ?
Response: False

Query: What did this assay record as the result for C=CCNC(=O)CC12CC3CC(C1)CC(CC(=O)NCC=C)(C3)C2 ?
Response: False

Query: What did this assay record as the result for Cn1c(=O)[nH]c2c(c(C(=O)O)nn2C)c1=O ?
Response: False

Query: What did this assay record as the result for CCN(CC(=O)NCc1cccs1)C(=O)c1ccc(OC)c(S(=O)(=O)N2CCOCC2)c1 ?
Response: False

Query: What did this assay record as the result for COCCn1cnc2c1c(=O)n(Cc1ccc(Br)cc1)c(=O)n2Cc1ccccc1 ?
Response: False

Query: What did this assay record as the result for COc1ccc(C2Nc3ccc(NC(=O)COC(C)=O)cc3C(=O)N2Cc2ccccc2)cc1COc1ccc(NC(C)=O)cc1 (centres undefined) ?
Response: True

Query: What did this assay record as the result for Cn1c(=O)c2sccc2n2c(CCC(=O)NCc3ccccc3Cl)nnc12 ?
Response: False
